Form field: IC50 (one value per entry).
- TARGET OF ASSAY: 20S Human Erythrocyte Proteasome (HEP) (Homo sapiens, UniProt P20618+P28074)
- Construct: 20S Human Erythrocyte Proteasome (HEP), purchased from Immatics Biotechnologies Inc
- ASSAY COMMENT: Chymotrypsin-like activity of 20S Human Erythrocyte Proteasome (HEP), IC50 determination
- RUN CONDITIONS: assay of Example C, inhibition of HEP
- Procedure: Assay for Chymotrypsin-like Activity of 20S Human Erythrocyte Proteasome (HEP) Proteasome chymotrypsin-like activity of compounds of the invention was assayed according to the following procedure. […] Inhibition of the chymotrypsin-like activity of HEP and of bovine α-chymotrypsin was determined by incubating the enzyme with various concentrations of putative inhibitors for 15 minutes at 37° C. […]

{"COMPOUND STRING": "CCCCCCCCCC(=O)N[C@@H](CNC(=O)c1ccc(C)cc1)C(=O)N[C@@H](CC(C)C)B(O)O", "OBSERVED PROPERTY": "IC50", "VALUE": "< 10 nM"}

Exercise: Using the record for `CCCCc1ccc(C(=O)N[C@@H](CNC(=O)c2ccc(C)cc2)C(=O)N[C@@H](CC(C)C)B(O)O)cc1` , report its IC50.
Key: < 10 nM

Exercise: Using the record for `CCCCc1ccc(C(=O)N[C@@H](CNS(=O)(=O)c2ccc(F)cc2)C(=O)N[C@@H](CC(C)C)B(O)O)cc1` , report its IC50.
Key: < 10 nM

Exercise: Using the record for `CCCCCCCCCC(=O)NCC(=O)N[C@@H](CC(C)C)B1O[C@@H]2C[C@@H]3C[C@@H](C3(C)C)[C@]2(C)O1` , report its IC50.
Key: < 10 nM

====

- TARGET OF ASSAY: 20S Human Erythrocyte Proteasome (HEP) (Homo sapiens, UniProt P20618+P28074)
- Construct: 20S Human Erythrocyte Proteasome (HEP), purchased from Immatics Biotechnologies Inc
- ASSAY COMMENT: Chymotrypsin-like activity of 20S Human Erythrocyte Proteasome (HEP), IC50 determination
- RUN CONDITIONS: assay of Example C, inhibition of HEP
Structures can show the parent of a compound that is named as a salt.
OBSERVED PROPERTY: IC50

Sample records with IC50:
{"MOLECULE": "CC(C)C[C@H](NC(=O)[C@@H](NC(=O)c1cnccn1)[C@@H](C)O)B1O[C@@H]2C[C@@H]3C[C@@H](C3(C)C)[C@]2(C)O1", "IC50": "< 100 nM"}
{"MOLECULE": "CCCCC[C@H]1CC[C@H](C(=O)N[C@@H](CCCNC(=N)N[N+](=O)[O-])C(=O)N[C@@H](CC(C)C)B(O)O)CC1", "IC50": "< 10 nM"}
{"MOLECULE": "CCCCCC/C=C/C(=O)N[C@@H](CCCNC(=N)N[N+](=O)[O-])C(=O)N[C@@H](CC(C)C)B(O)O", "IC50": "< 10 nM"}

Exercise: So what IC50 did CCCCc1ccc(C(=O)N[C@@H](CNC(=O)c2cc(C)nn2C)C(=O)N[C@@H](CC(C)C)B(O)O)cc1 [E.5.29, hydrochloride] get with 20S Human Erythrocyte Proteasome (HEP) (Homo sapiens, UniProt P20618+P28074)?
Key: < 10 nM

Exercise: So what IC50 did `CCCCCCCC(=O)N[C@@H](CCCNC(=N)N[N+](=O)[O-])C(=O)N[C@@H](CC(C)C)B(O)O` get with 20S Human Erythrocyte Proteasome (HEP) (Homo sapiens, UniProt P20618+P28074)?
Key: < 10 nM

Exercise: So what IC50 did `CC(C)C[C@H](NC(=O)[C@H](CCCNC(=N)N[N+](=O)[O-])NC(=O)Cc1ccccc1)B1O[C@@H]2C[C@@H]3C[C@@H](C3(C)C)[C@]2(C)O1` get with 20S Human Erythrocyte Proteasome (HEP) (Homo sapiens, UniProt P20618+P28074)?
Key: < 10 nM

====

Form field: IC50 (one value per entry).
- TARGET OF ASSAY: 20S Human Erythrocyte Proteasome (HEP) (Homo sapiens, UniProt P20618+P28074)
- Construct: 20S Human Erythrocyte Proteasome (HEP), purchased from Immatics Biotechnologies Inc
- ASSAY COMMENT: Chymotrypsin-like activity of 20S Human Erythrocyte Proteasome (HEP), IC50 determination
- RUN CONDITIONS: assay of Example C, inhibition of HEP

Sample records with IC50:
{"COMPOUND": "CC(C)C[C@H](NC(=O)[C@H](CCCNC(=N)N[N+](=O)[O-])NC(=O)C1CCCCC1)B(O)O", "IC50": "< 0.01 µM"}
{"COMPOUND": "COCCOCCOCC(=O)N[C@H](C(=O)N[C@@H](CC(C)C)B1O[C@@H]2C[C@@H]3C[C@@H](C3(C)C)[C@]2(C)O1)[C@@H](C)O", "IC50": "< 0.1 µM"}
{"COMPOUND": "CC(C)C[C@H](NC(=O)[C@H](CCCNC(=N)N[N+](=O)[O-])NC(=O)Cn1cnnn1)B1O[C@@H]2C[C@@H]3C[C@@H](C3(C)C)[C@]2(C)O1", "IC50": "< 0.01 µM"}
{"COMPOUND": "COc1ccc(CC(=O)N[C@@H](CCCNC(=N)N[N+](=O)[O-])C(=O)N[C@@H](CC(C)C)B(O)O)cc1", "IC50": "< 0.01 µM"}
{"COMPOUND": "CCCCCCCCCC(=O)N[C@@H](CNC(=O)Nc1ccccc1)C(=O)N[C@@H](CC(C)C)B(O)O", "IC50": "< 0.01 µM"}

Let us examine a further case.
Exercise: Using the record for CC(C)C[C@H](NC(=O)[C@H](CCCNC(=N)N[N+](=O)[O-])NC(=O)C(C)c1ccc(Cl)cc1)B(O)O (mixture of isomers) , report its IC50.
Key: < 0.01 µM

====

- TARGET OF ASSAY: proteasome in Molt-4 cells (human leukemia) (Homo sapiens, UniProt P20618+P28074)
- Assay type: cell-based
- RUN CONDITIONS: assay of Example E, inhibition of MOLT4; read-out: MOLT4 (EC50)
Form field: EC50 (one value per entry).

Exercise: Using the record for `CC(C)C[C@H](NC(=O)[C@H](CCCNC(=N)N[N+](=O)[O-])NC(=O)CCCCCc1ccccc1)B1O[C@@H]2C[C@@H]3C[C@@H](C3(C)C)[C@]2(C)O1` , report its EC50.
Key: < 200 nM

Exercise: Using the record for `CC(C)C[C@H](NC(=O)[C@H](CCCNC(=N)N[N+](=O)[O-])NC(=O)c1ccoc1)B(O)O` , report its EC50.
Key: > 10000 nM

Exercise: Using the record for `CC(C)C[C@H](NC(=O)[C@@H](NC(=O)c1ccccc1)[C@@H](C)O)B1O[C@@H]2C[C@@H]3C[C@@H](C3(C)C)[C@]2(C)O1` , report its EC50.
Key: < 200 nM

====

OBSERVED PROPERTY: melting point

{"COMPOUND STRING": "CCCCc1ccc(C(=O)N[C@@H](CNC(=O)Cc2ccc(OC)c(OC)c2)C(=O)N[C@@H](CC(C)C)B(O)O)cc1", "OBSERVED PROPERTY": "melting point", "VALUE": "150 to 152 °C"}

Exercise: Using the record for `CCCCc1ccc(C(=O)N[C@@H](CNC(=O)C#Cc2ccccc2)C(=O)N[C@@H](CC(C)C)B2O[C@@H]3C[C@@H]4C[C@@H](C4(C)C)[C@]3(C)O2)cc1` , report its melting point.
Key: 118 to 120 °C

Exercise: Using the record for `CCCCc1ccc(C(=O)N[C@@H](CNC(C)=O)C(=O)N[C@@H](CC(C)C)B(O)O)cc1` , report its melting point.
Key: 107 to 109 °C

Exercise: Using the record for `CCCCc1ccc(C(=O)N[C@@H](CNC(=O)NS(=O)(=O)c2ccc(C)cc2)C(=O)N[C@@H](CC(C)C)B(O)O)cc1` , report its melting point.
Key: 175 to 177 °C

====

- TARGET OF ASSAY: proteasome in Molt-4 cells (human leukemia) (Homo sapiens, UniProt P20618+P28074)
- Sequence (P28074 60-263): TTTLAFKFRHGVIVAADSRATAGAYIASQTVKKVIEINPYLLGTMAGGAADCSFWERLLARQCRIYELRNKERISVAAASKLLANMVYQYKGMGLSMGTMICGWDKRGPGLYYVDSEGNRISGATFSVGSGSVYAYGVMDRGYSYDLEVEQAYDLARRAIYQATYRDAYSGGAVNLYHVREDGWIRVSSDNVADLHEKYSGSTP
- Sequence (P20618 29-241): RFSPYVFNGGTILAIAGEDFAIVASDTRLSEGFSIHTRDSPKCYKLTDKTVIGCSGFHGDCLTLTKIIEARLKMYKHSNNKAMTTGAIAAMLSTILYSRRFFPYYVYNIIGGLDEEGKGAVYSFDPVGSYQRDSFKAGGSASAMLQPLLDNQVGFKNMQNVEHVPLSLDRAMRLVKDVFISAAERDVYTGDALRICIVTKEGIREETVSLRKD
- Assay type: cell-based
- RUN CONDITIONS: assay of Example E, inhibition of MOLT4; read-out: MOLT4 (EC50)
pEC50: −log10 of the molar value.
Form field: pEC50 (one value per entry).

{"COMPOUND": "COc1ccccc1/C=C\\C(=O)N[C@@H](CCCNC(=N)N[N+](=O)[O-])C(=O)N[C@@H](CC(C)C)B1O[C@@H]2C[C@@H]3C[C@@H](C3(C)C)[C@]2(C)O1", "TARGET OF ASSAY": "proteasome in Molt-4 cells (human leukemia) (Homo sapiens, UniProt P20618+P28074)", "pEC50": "5.70 to 6.70"}
{"COMPOUND": "CCCCCCCCCC(=O)N[C@@H](CNC(=O)c1ccc(C)cc1)C(=O)N[C@@H](CC(C)C)B1O[C@@H]2C[C@@H]3C[C@@H](C3(C)C)[C@]2(C)O1", "TARGET OF ASSAY": "proteasome in Molt-4 cells (human leukemia) (Homo sapiens, UniProt P20618+P28074)", "pEC50": "> 6.70"}
{"COMPOUND": "CC(C)C[C@H](NC(=O)[C@@H](NC(=O)c1ccc(Oc2ccccc2)cc1)[C@@H](C)O)B(O)O", "TARGET OF ASSAY": "proteasome in Molt-4 cells (human leukemia) (Homo sapiens, UniProt P20618+P28074)", "pEC50": "> 6.70"}
{"COMPOUND": "CC(C)C[C@H](NC(=O)[C@H](CCCNC(=N)N[N+](=O)[O-])NC(=O)/C=C/c1ccc(Br)cc1)B1O[C@@H]2C[C@@H]3C[C@@H](C3(C)C)[C@]2(C)O1", "TARGET OF ASSAY": "proteasome in Molt-4 cells (human leukemia) (Homo sapiens, UniProt P20618+P28074)", "pEC50": "> 6.70"}
{"COMPOUND": "CCCCC(C)CCC(=O)N[C@@H](CCCNC(=N)N[N+](=O)[O-])C(=O)N[C@@H](CC(C)C)B(O)O (mixture of isomers)", "TARGET OF ASSAY": "proteasome in Molt-4 cells (human leukemia) (Homo sapiens, UniProt P20618+P28074)", "pEC50": "5.70 to 6.70"}

Exercise: Using the record for `CC(C)C[C@H](NC(=O)[C@H](CCCNC(=N)N[N+](=O)[O-])NC(=O)COc1ccc2ccccc2c1)B1O[C@@H]2C[C@@H]3C[C@@H](C3(C)C)[C@]2(C)O1` , report its pEC50.
Key: > 6.70
